Kindly state viability, T/C for each of the entries shown.
Test system: 817829-284-R-J1-PDC multi-cell spheroid viability
assayOverview: Anticancer human tumor 817829-284-R-J1-PDC patient-derived colon adenocarcinoma cell line growth inhibition [PI3K]
conditionLabel: second compound 0.0316 µM; first compound 0.1 µM; stronger effect = lower value

Query :: Given CCCS(=O)(=O)Nc1ccc(F)c(C(=O)c2c[nH]c3ncc(-c4ccc(Cl)cc4)cc23)c1F + CC(Nc1ncnc2nc[nH]c12)c1cc2cccc(Cl)c2c(=O)n1-c1ccccc1 , state its recorded viability, T/C.
Result :: 61.7%

Query :: Would you mind doing CNC(=O)c1ccc(N2C(=S)N(c3ccc(C#N)c(C(F)(F)F)c3)C(=O)C2(C)C)cc1F + Cc1nc(NC(=O)N2CCCC2C(N)=O)sc1-c1ccnc(C(C)(C)C(F)(F)F)c1 as well?
Result :: 102%

Query :: Continue with CC(C)n1nc(-c2ccc3oc(N)nc3c2)c2c(N)ncnc21 + CC(Nc1ccc2c(c1)OCCn1cc(N3C(=O)OCC3C(F)F)nc1-2)C(N)=O
Result :: 12.8%

Query :: Also Cn1ncc(Cl)c1-c1cc(C(=O)NC(CN)Cc2cccc(F)c2)sc1Cl (stereo unspecified) + CC(Nc1ccc2c(c1)OCCn1cc(N3C(=O)OCC3C(F)F)nc1-2)C(N)=O ?
Result :: 30.6%

Query :: Please answer likewise for CC(Cn1ccc(-c2ccc(C#N)c(Cl)c2)n1)NC(=O)c1cc(C(C)O)[nH]n1 (stereo unspecified) + CC(Nc1ccc2c(c1)OCCn1cc(N3C(=O)OCC3C(F)F)nc1-2)C(N)=O
Result :: 96.8%

Query :: // next record C=CC(=O)N1CCN(c2nc(=O)n(-c3c(C)ccnc3C(C)C)c3nc(-c4c(O)cccc4F)c(F)cc23)C(C)C1 (stereo unspecified) + Cc1nc(NC(=O)N2CCCC2C(N)=O)sc1-c1ccnc(C(C)(C)C(F)(F)F)c1
Result :: 75.8%

* * *

Would you kindly list viability, T/C for each of these compounds?
Tested on: 817829-284-R-J1-PDC multi-cell spheroid viability
assayOverview: Anticancer human tumor 817829-284-R-J1-PDC cell line growth inhibition [PI3K];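 further: spheroids exposed to agents for seven days before readout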;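 on viability, T/C: percent of vehicle DMSO control viability which is 100%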
conditionLabel: second compound 0.316 µM; first compound 0.1 µM; stronger effect = lower value

Query :: Given the compound CC(=O)c1c(C)c2cnc(Nc3ccc(N4CCNCC4)cn3)nc2n(C2CCCC2)c1=O + Cc1nc(NC(=O)N2CCCC2C(N)=O)sc1-c1ccnc(C(C)(C)C(F)(F)F)c1 , what is its reported viability, T/C?
Result :: 44.7%

Query :: Same question for C#Cc1c(F)ccc2cc(O)cc(-c3ncc4c(N5CC6CCC(C5)N6)nc(OCC56CCCN5CC(F)C6)nc4c3F)c12 (stereo not given) + CC(Nc1ccc2c(c1)OCCn1cc(N3C(=O)OCC3C(F)F)nc1-2)C(N)=O please.
Result :: 83.5%

Query :: What do you get for CC(C)NCC(C(=O)N1CCN(c2ncnc3c2C(C)CC3O)CC1)c1ccc(Cl)cc1 (stereo not given) + Cc1nc(NC(=O)N2CCCC2C(N)=O)sc1-c1ccnc(C(C)(C)C(F)(F)F)c1 ?
Result :: 107%

Query :: And CCCS(=O)(=O)Nc1ccc(F)c(C(=O)c2c[nH]c3ncc(-c4ccc(Cl)cc4)cc23)c1F + CC(Nc1ccc2c(c1)OCCn1cc(N3C(=O)OCC3C(F)F)nc1-2)C(N)=O ?
Result :: 57.1%

Query :: Now the same for Cn1ncnc1[C@H]1c2n[nH]c(=O)c3cc(F)cc(c23)N[C@@H]1c1ccc(F)cc1 + CC(Nc1ccc2c(c1)OCCn1cc(N3C(=O)OCC3C(F)F)nc1-2)C(N)=O
Result :: 33.3%

* * *

Could you please report measured IC50 for the items listed next?
System: 817829-284-R-J1-PDC multi-cell spheroid viability
assayOverview: Anticancer human tumor 817829-284-R-J1-PDC cell line growth inhibition [PI3K];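 further: spheroids exposed to agents for seven days before readout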
conditionLabel: curve of first compound; second compound 0.0316 µM
Source text: Combinatorial screen of targeted agents with the PI3K inhibitors inavolisib, alpelisib, duvelisib, and copanlisib in multi-cell type tumor spheroids A high-throughput screen of multi-cell type tumor spheroids was designed to identify active combinations of targeted small molecules and PI3K pathway inhibitors. […] Compounds. […] If the clinical Cmax for an agent had not been determined, the highest concentration tested was 10 microM. […]
Entry rule: numbers only, all in µM.

Query :: # query: IC50 of entry CCCS(=O)(=O)Nc1ccc(F)c(C(=O)c2c[nH]c3ncc(-c4ccc(Cl)cc4)cc23)c1F + CC(Nc1ncnc2nc[nH]c12)c1cc2cccc(Cl)c2c(=O)n1-c1ccccc1
Result :: 4.76

Query :: Ok, now Cn1cnc2c(F)c(Nc3ccc(Br)cc3Cl)c(C(=O)NOCCO)cc21 + COc1c(OCCCN2CCOCC2)ccc2c3n(c(=NC(=O)c4cnc(N)nc4)nc12)CCN3
Result :: 0.0801

Query :: Now give it for Cn1nccc1Nc1nccc(-c2ccn(C(CO)c3ccc(Cl)c(F)c3)c(=O)c2)n1 (configuration not stated) + Cc1nc(NC(=O)N2CCCC2C(N)=O)sc1-c1ccnc(C(C)(C)C(F)(F)F)c1 too.
Result :: 7.87

Query :: Do the same for CC(C)n1nc(-c2ccc3oc(N)nc3c2)c2c(N)ncnc21 + CC(Nc1ncnc2nc[nH]c12)c1cc2cccc(Cl)c2c(=O)n1-c1ccccc1 please
Result :: 0.0197

Query :: Now this one: Cn1ncnc1[C@H]1c2n[nH]c(=O)c3cc(F)cc(c23)N[C@@H]1c1ccc(F)cc1 + Cc1nc(NC(=O)N2CCCC2C(N)=O)sc1-c1ccnc(C(C)(C)C(F)(F)F)c1
Result :: 0.0251

Query :: How about CC(=O)c1c(C)c2cnc(Nc3ccc(N4CCNCC4)cn3)nc2n(C2CCCC2)c1=O + CC(Nc1ncnc2nc[nH]c12)c1cc2cccc(Cl)c2c(=O)n1-c1ccccc1 ?
Result :: 0.0709

Query :: Next compound: CCCS(=O)(=O)Nc1ccc(F)c(C(=O)c2c[nH]c3ncc(-c4ccc(Cl)cc4)cc23)c1F + CC(Nc1ccc2c(c1)OCCn1cc(N3C(=O)OCC3C(F)F)nc1-2)C(N)=O
Result :: 3.74

Query :: Also, CC(=O)c1c(C)c2cnc(Nc3ccc(N4CCNCC4)cn3)nc2n(C2CCCC2)c1=O + COc1c(OCCCN2CCOCC2)ccc2c3n(c(=NC(=O)c4cnc(N)nc4)nc12)CCN3 please.
Result :: 0.0123

Query :: Moving on to the next compound: CC(Cn1ccc(-c2ccc(C#N)c(Cl)c2)n1)NC(=O)c1cc(C(C)O)[nH]n1 (configuration not stated) + COc1c(OCCCN2CCOCC2)ccc2c3n(c(=NC(=O)c4cnc(N)nc4)nc12)CCN3
Result :: 5.82

Query :: Let us now turn to Cn1ncnc1[C@H]1c2n[nH]c(=O)c3cc(F)cc(c23)N[C@@H]1c1ccc(F)cc1 + CC(Nc1ccc2c(c1)OCCn1cc(N3C(=O)OCC3C(F)F)nc1-2)C(N)=O
Result :: 0.01

Query :: Repeat with Cn1cnc2c(F)c(Nc3ccc(Br)cc3Cl)c(C(=O)NOCCO)cc21 + Cc1nc(NC(=O)N2CCCC2C(N)=O)sc1-c1ccnc(C(C)(C)C(F)(F)F)c1
Result :: 0.289

Query :: Request: CCCS(=O)(=O)Nc1ccc(F)c(C(=O)c2c[nH]c3ncc(-c4ccc(Cl)cc4)cc23)c1F + COc1c(OCCCN2CCOCC2)ccc2c3n(c(=NC(=O)c4cnc(N)nc4)nc12)CCN3
Result :: 2.3

Query :: Thanks! And Cn1nccc1Nc1nccc(-c2ccn(C(CO)c3ccc(Cl)c(F)c3)c(=O)c2)n1 (configuration not stated) + CC(Nc1ccc2c(c1)OCCn1cc(N3C(=O)OCC3C(F)F)nc1-2)C(N)=O ?
Result :: 7.18

* * *

Test system: 817829-284-R-J1-PDC multi-cell spheroid viability
assayOverview: Anticancer human tumor 817829-284-R-J1-PDC cell line growth inhibition [PI3K];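 further: spheroids exposed to agents for seven days before readout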;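 on viability, T/C: percent of vehicle DMSO control viability which is 100%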
conditionLabel: second compound 0.1 µM; first compound 0.316 µM; stronger effect = lower value
Provide the reported viability, T/C of each item.

Query :: Would you mind telling me what viability, T/C value was observed for Cn1ncc(Cl)c1-c1cc(C(=O)NC(CN)Cc2cccc(F)c2)sc1Cl (centres undefined) + CC(Nc1ccc2c(c1)OCCn1cc(N3C(=O)OCC3C(F)F)nc1-2)C(N)=O ?
Result :: 21%

Query :: Also Cn1nccc1Nc1nccc(-c2ccn(C(CO)c3ccc(Cl)c(F)c3)c(=O)c2)n1 (centres undefined) + CC(Nc1ccc2c(c1)OCCn1cc(N3C(=O)OCC3C(F)F)nc1-2)C(N)=O ?
Result :: 92.3%

Query :: Entry C#Cc1c(F)ccc2cc(O)cc(-c3ncc4c(N5CC6CCC(C5)N6)nc(OCC56CCCN5CC(F)C6)nc4c3F)c12 (centres undefined) + CC(Nc1ccc2c(c1)OCCn1cc(N3C(=O)OCC3C(F)F)nc1-2)C(N)=O please
Result :: 56.1%

Query :: Please answer likewise for C[C@@H](NC(=O)c1ncnc(N)c1Cl)c1ncc(C(=O)Nc2cc(C(F)(F)F)c(Cl)cn2)s1 + COc1c(OCCCN2CCOCC2)ccc2c3n(c(=NC(=O)c4cnc(N)nc4)nc12)CCN3
Result :: 29.8%

Query :: Next compound: C#Cc1c(F)ccc2cc(O)cc(-c3ncc4c(N5CC6CCC(C5)N6)nc(OCC56CCCN5CC(F)C6)nc4c3F)c12 (centres undefined) + COc1c(OCCCN2CCOCC2)ccc2c3n(c(=NC(=O)c4cnc(N)nc4)nc12)CCN3
Result :: 37.6%

Query :: Further, for CCN1CCN(Cc2ccc(Nc3ncc(F)c(-c4cc(F)c5nc(C)n(C(C)C)c5c4)n3)nc2)CC1 + Cc1nc(NC(=O)N2CCCC2C(N)=O)sc1-c1ccnc(C(C)(C)C(F)(F)F)c1 ?
Result :: 64.4%

Query :: How about this compound: CCCS(=O)(=O)Nc1ccc(F)c(C(=O)c2c[nH]c3ncc(-c4ccc(Cl)cc4)cc23)c1F + CC(Nc1ccc2c(c1)OCCn1cc(N3C(=O)OCC3C(F)F)nc1-2)C(N)=O
Result :: 47.8%

Query :: Also check Cn1nccc1Nc1nccc(-c2ccn(C(CO)c3ccc(Cl)c(F)c3)c(=O)c2)n1 (centres undefined) + Cc1nc(NC(=O)N2CCCC2C(N)=O)sc1-c1ccnc(C(C)(C)C(F)(F)F)c1
Result :: 76.3%

Query :: // repeat for CC1(C)CCC(CN2CCN(c3ccc(C(=O)NS(=O)(=O)c4ccc(NCC5CCOCC5)c([N+](=O)[O-])c4)c(Oc4cnc5[nH]ccc5c4)c3)CC2)=C(c2ccc(Cl)cc2)C1 + CC(Nc1ccc2c(c1)OCCn1cc(N3C(=O)OCC3C(F)F)nc1-2)C(N)=O and report
Result :: 58.1%
